I'd appreciate it if you could supply pKd values for the items below.
biological target: T1, hK1 (human tissue kallikrein 1), recombinant (human, UniProt P06870 25-262); assay: SPR
T1 construct: Expressed in P. pastoris from KLK1 cDNA and purified; enzymatically active; also called KLK1; Recombinant (Pichia) Kallikrein
Numbers only, as −log10 of the molar value.

Check out these entries, answers already filled in.
{"BINDER": "M0139-F04 (Fab, V domains shown) VH: EVQLLESGGGLVQPGGSLRLSCAASGFTFSRYYMEWVRQAPGKGLEWVSSISSSGGSTEYADSVKGRFTISRDNSKNTLYLQMNSLRAEDTAVYYCAKDITPGGGSGFRLPKNYYYYGMDVWGQGTTVTVSS VL: DIQMTQSPSSLSASVGDRVTITCRASQAISTNLNWYQQKPGKAPKLLIYAASSLQSGVPSRFIGSGSGTDFTLTISSLHPEDFATYHCQQTFSPPHTFGQGTKVEIQR", "QUANTITATIVE_READOUT": 8.14}
{"BINDER": "M0110-H11 (Fab, V domains shown) VH: EVQLLESGGGLVQPGGSLRLSCAASGFTFSHYKMEWVRQAPGKGLEWVSRIRPSGGVTKYADSVKGRFTISRDNSKNTLYLQMNSLRAEDTAVYYCTRGGLWDAFDIWGQGTMVTVSS VL: DIQMTQSPSSLSASVGDRVTITCRASQSISSYLNWYQQKPGKAPKLLIYAASSLQSGVPSRFSGSGSGTDFTLTISSLHPEDFATYYCQQTYSTLFTFGPGTKVHIKR", "QUANTITATIVE_READOUT": 8.21}

Take each entry in turn and give its pKd.
1. M0116-C09 (Fab, V domains shown) VH: EVQLLESGGGLVQPGGSLRLSCAASGFTFSNYKMHWVRQAPGKGLEWVSSIYPSGGWTVYADSVKGRFTISRDNSKNTLYLQMNSLRAEDTAVYYCATGYSSTWGAFDIWGQGTMVTVSS VL: AQSALTQPPSVSVSPGQTASITCFGDKLGDKYGSWYQQKPGQSPVLVLYQYWKRPSGIPERFSGSNSGNTATLTINVTQTMDEADYYCQAWDSNTVVFGGGTKLTVLG
2. M0111-B02 (Fab, V domains shown) VH: EVQLLESGGGLVQPGGSLRLSCAASGFTFSKYWMAWVRQAPGKGLEWVSVIYPSGGQTKYADSVKGRFTISRDNSKNTLYLQMNSLRAEDTAVYYCTLMRYGDRFDYWGQGTLVTVSS VL: AQYELTQDPAVSVALGQTVRITCQGDSLRSYYASWYQQKPGQAPVLVIYSKSNRPSGIPDRFSGSSSGSTASLTITGAQAEDEADYYCNSRDSSGNHLVFGGGTKLTVL
3. M0095-H10 (Fab, V domains shown) VH: EVQLLESGGGLVQPGGSLRLSCAASGFTFSNYKMQWVRQAPGKGLEWVSSIYSSGGKTVYADSVKGRFTISRDNSKNTLYLQMNSLRAEDTAVYYCARTPGYNYFDYWGQGTLVTVSS VL: DIQMTQSPSTLSASVGDRVTITCRASQSISSWLAWYQQKPGKAPKLLIYTASSLESGVPSRFSAGGSGTEFTLTISSLQPDDFGTYYCQQYNSYSLTFGGGTKVEIKR
4. M0128-F11 (Fab, V domains shown) VH: EVQLLESGGGLVQPGGSLRLSCAASGFTFSFYVMGWVRQAPGKGLEWVSWIGPSGGRTWYADSVKGRFTISRDNSKNTLYLQMNSLRAEDTAVYYCARDRGWYGIDVWGQGTTVTVSS VL: DIQMTQSPSSLSASVGDRVTITCRASQYISTYLAWYQQKPGKAPKLLIYKASDLESGVPSRFSGSGSGTEFTLTINSLQPDDFATYYCQQYNTYWTFGHGTKVEIKR
5. M0107-B05 (Fab, V domains shown) VH: EVQLLESGGGLVQPGGSLRLSCAASGFTFSHYLMMWVRQAPGKGLEWVSSIRSSGGITRYADSVKGRFTISRDNSKNTLYLQMNSLRAEDTAVYYCARVGYYYGMDVWGQGTTVTVSS VL: AQSELTQPASVSGSPGQSITISCTGTSSDVGAYNYVSWYQQHPGKVPKLMIYEVSNRPSGVSNRFSGSKSGNTASLTISGLQAEDEADYYCNSYTTSATLVFGGGTKLTVLS

OUTPUT:
[7.74, 7.90, 7.78, 7.74, 7.47]
